- Test system: 958767-090-R-J1-PDC spheroid growth;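 note: spheroids exposed to agents for 7 days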
- ASSAY COMMENT: Anticancer human tumor 958767-090-R-J1-PDC patient-derived head and neck squamous carcinoma cell line growth inhibition [IpAb]
- CONDITION: second compound 1 µM; first compound 0.03 µM; active compounds read low; spheroids with HUVEC and MSC
Rule: viability, T/C below 70% gives T, anything at or above gives F.

Solved cases below.
MOLECULE	ASSIGNED CLASS
Cn1cnc2c(F)c(Nc3ccc(Br)cc3Cl)c(C(=O)NOCCO)cc21 + CCN1CCN(Cc2ccc(Nc3ncc(F)c(-c4cc(F)c5nc(C)n(C(C)C)c5c4)n3)nc2)CC1	T
CC(=O)c1c(C)c2cnc(Nc3ccc(N4CCNCC4)cn3)nc2n(C2CCCC2)c1=O + CC(C)NCC(C(=O)N1CCN(c2ncnc3c2C(C)CC3O)CC1)c1ccc(Cl)cc1	T
CC(C)(C)c1cnc(CSc2cnc(NC(=O)C3CCNCC3)s2)o1 + CCN1CCN(Cc2ccc(Nc3ncc(F)c(-c4cc(F)c5nc(C)n(C(C)C)c5c4)n3)nc2)CC1	F
CC(=O)c1c(C)c2cnc(Nc3ccc(N4CCNCC4)cn3)nc2n(C2CCCC2)c1=O + CCN1CCN(Cc2ccc(Nc3ncc(F)c(-c4cc(F)c5nc(C)n(C(C)C)c5c4)n3)nc2)CC1	T

Let's switch to this molecule now.
input: Threshold test, viability, T/C < 70%: Cn1cnc2c(F)c(Nc3ccc(Br)cc3Cl)c(C(=O)NOCCO)cc21 + CC(C)NCC(C(=O)N1CCN(c2ncnc3c2C(C)CC3O)CC1)c1ccc(Cl)cc1
output: T
